Origin of the recorded values: patent US20230233569A1

# target: KRAS WT (Homo sapiens, UniProt P01116+P62937)
# Sequence (P01116 1-169 isoform P01116-2 limits assumed): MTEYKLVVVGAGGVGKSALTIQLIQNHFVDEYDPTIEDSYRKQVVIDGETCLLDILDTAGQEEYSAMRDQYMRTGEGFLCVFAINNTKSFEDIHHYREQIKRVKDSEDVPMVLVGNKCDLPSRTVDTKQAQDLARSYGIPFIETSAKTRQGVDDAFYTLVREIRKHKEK
# Sequence (P62937 whole entry): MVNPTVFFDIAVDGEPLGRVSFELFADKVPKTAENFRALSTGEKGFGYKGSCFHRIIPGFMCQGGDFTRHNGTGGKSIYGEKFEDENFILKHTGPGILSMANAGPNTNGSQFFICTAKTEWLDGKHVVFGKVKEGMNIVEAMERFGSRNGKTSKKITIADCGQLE
# assay.overview: Disruption of BRAF RBD interaction with Ras (FRET / MOA assay, with Cyclophilin A)
# Type: biochemical
# measurement.conditions: KRAS WT; read-out: KRAS WT FRET data IC50
Exercise: for every item that follows, state its recorded IC50.

Below are worked cases with known answers.
# compound, IC50
rows = [
    ("CCn1c(-c2cccnc2COC)c2c3cc(ccc31)-c1cc(O)cc(c1)C[C@H](NC(=O)[C@H](C(C)C)N(C)C(=O)C1CN(C(=O)C#CCN(C)C)C1)C(=O)N1CCC[C@H](N1)C(=O)OCC(C)(C)C2 [Example A097]", "100 to 1000 nM"),
    ("C=CC(=O)N1CCO[C@H]2CN(C(=O)N(C)[C@H](C(=O)N[C@H]3Cc4cccc(n4)-c4ccc5c(c4)c(c(-c4cccnc4[C@H](C)OC)n5CC(F)(F)F)CC(C)(C)COC(=O)C4CCCN(N4)C3=O)C(C)C)C[C@H]21 (some centres unmarked) [Example A595]", "100 to 1000 nM"),
    ("C=CC(=O)N1CC[C@H](C(=O)N(C)[C@H](C(=O)N[C@H]2Cc3cc(O)cc(c3)-c3ccc4c(c3)c(c(-c3cc(CN(C)C)cnc3COC)n4CC)CC(C)(C)COC(=O)[C@@H]3CCCN(N3)C2=O)C(C)C)C1 [Example A149]", "100 to 1000 nM"),
]

Hello, I would appreciate it if you could give IC50 for each entry below.
1. C=CC(=O)N1CC[C@H](C(=O)N(C)[C@H](C(=O)N[C@H]2Cc3nsc(n3)-c3ccc4c(c3)c(c(-c3cccnc3[C@H](C)OC)n4CC)CC(C)(C)COC(=O)[C@@H]3CCCN(N3)C2=O)C(C)C)C1 (atropisomer, axis not shown) [Example A694]
2. CCn1c(-c2cccnc2[C@H](C)OC)c2c3cc(ccc31)-c1csc(n1)C[C@H](NC(=O)[C@H](C(C)C)N(C)C(=O)[C@H]1CCN(C(=O)CN)C1)C(=O)N1CCC[C@H](N1)C(=O)OCC(C)(C)C2 [Example A106]
3. CCn1c(-c2cccnc2[C@H](C)OC)c2c3cc(ccc31)-c1cc(O)cc(c1)C[C@H](NC(=O)[C@H](C(C)C)N(C)C(=O)O[C@H]1CCOC1)C(=O)N1CCC[C@H](N1)C(=O)OCC(C)(C)C2 [Example A209]
4. CCn1c(-c2cccnc2[C@H](C)OC)c2c3cc(ccc31)-c1csc(n1)C[C@H](NC(=O)[C@H](C(C)C)N(C)C(=O)N(C)C[C@@H]1CCCN1C)C(=O)N1CCC[C@H](N1)C(=O)OCC(C)(C)C2 [Example A504]

A:
["1000 to 10000 nM", "100 to 1000 nM", "100 to 1000 nM", "100 to 1000 nM"]

----------
# target: NRAS G12C (Homo sapiens, UniProt P01111+P62937, G12C)
# Sequence (P01111 whole entry G12C): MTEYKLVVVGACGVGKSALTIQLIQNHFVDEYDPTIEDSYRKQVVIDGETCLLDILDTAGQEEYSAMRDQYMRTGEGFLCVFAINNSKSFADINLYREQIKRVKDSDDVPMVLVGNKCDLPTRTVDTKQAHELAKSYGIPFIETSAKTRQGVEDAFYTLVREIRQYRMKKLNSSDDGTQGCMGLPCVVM
# Sequence (P62937 whole entry): as the sequence (P62937 whole entry) above
# assay.overview: Disruption of BRAF RBD interaction with Ras (FRET / MOA assay, with Cyclophilin A)
# Assay type: biochemical
# measurement.conditions: NRAS G12C; read-out: NRAS G12C FRET data IC50
pIC50: −log10 of the molar value.
parameter: pIC50

# compound.smiles, pIC50
measured = [
    ("CCn1c(-c2cccnc2[C@H](C)OC)c2c3cc(ccc31)-c1csc(n1)C[C@H](NC(=O)[C@H](C(C)C)N(C)C(=O)[C@H]1CCCO1)C(=O)N1CCC[C@H](N1)C(=O)OCC(C)(C)C2", "5.00 to 6.00"),
    ("CCn1c(-c2cccnc2[C@H](C)OC)c2c3cc(ccc31)-c1csc(n1)C[C@H](NC(=O)[C@H](C(C)C)N(C)C(=O)N1C3CC1CN(C)C3)C(=O)N1CCC[C@H](N1)C(=O)OCC(C)(C)C2", "6.00 to 7.00"),
]

I need pIC50 for every entry listed below, if you could help.
1. C=CC(=O)N1CC[C@H](C(=O)Nc2ccccc2C(=O)N[C@H]2Cc3cc(O)cc(c3)-c3ccc4c(c3)c(c(-c3cnccc3COC)n4CC)CC(C)(C)COC(=O)[C@@H]3CCCN(N3)C2=O)C1
2. CCn1c(-c2cnccc2COC)c2c3cc(ccc31)-c1cc(O)cc(c1)C[C@H](NC(=O)[C@H](C(C)C)N1COCC1=O)C(=O)N1CCC[C@H](N1)C(=O)OCC(C)(C)C2
3. CCn1c(-c2cccnc2[C@H](C)OC)c2c3cc(ccc31)-c1cccc(c1)C[C@H](NC(=O)[C@H](C(C)C)N(C)C(=O)[C@H]1CCN(C(=O)C#C[C@@H]3CCO3)C1)C(=O)N1CCC[C@H](N1)C(=O)OCC(C)(C)C2

A:
7.00 to 8.00
6.00 to 7.00
> 8.00

----------
For each entry below, report its pIC50 value.
# target: KRAS WT (Homo sapiens, UniProt P01116+P62937)
# assay.overview: Disruption of BRAF RBD interaction with Ras (FRET / MOA assay, with Cyclophilin A)
# Format: biochemical
# measurement.conditions: KRAS WT; read-out: KRAS WT FRET data IC50
pIC50: −log10 of the molar value.

# compound, pIC50
measured = [
    ("CCn1c(-c2cccnc2[C@H](C)OC)c2c3cc(ccc31)-c1cc(O)cc(c1)C[C@H](NC(=O)[C@H](C(C)C)N(C)C(=O)C1(CO)CC1)C(=O)N1CCC[C@H](N1)C(=O)OCC(C)(C)C2 [Example A232]", "6.00 to 7.00"),
    ("C=CC(=O)N1CC[C@H](C(=O)N(C)[C@H](C(=O)N[C@H]2Cc3cc(O)cc(c3)-c3ccc4c(c3)c(c(-c3c(F)cccc3CCOC)n4CC)CC(C)(C)COC(=O)[C@@H]3CCCN(N3)C2=O)C(C)C)C1 [Example A025]", "5.00 to 6.00"),
    ("CCn1c(-c2cc(N3CCN(C)CC3)cnc2[C@H](C)OC)c2c3cc(ccc31)-c1csc(n1)C[C@H](NC(=O)[C@H](C(C)C)N(C)C(=O)N(C)C)C(=O)N1CCC[C@H](N1)C(=O)OCC(C)(C)C2 (atropisomer, axis not shown) [Example A277]", "7.00 to 8.00"),
    ("C=CC(=O)N1CC[C@H](C(=O)N(C)[C@H](C(=O)N[C@H]2Cc3nc(cs3)-c3ccc4c(c3)c(c(-c3cccnc3COC)n4CC)CC(C)(C)COC(=O)[C@@H]3CCCN(N3)C2=O)C(C)C)C1 [Example A094]", "< 5.00"),
    ("CCn1c(-c2cccnc2[C@H](C)OC)c2c3cc(ccc31)-c1cc(O)cc(c1)C[C@H](NC(=O)[C@H](C(C)C)N(C)C(=O)[C@H]1CCN(C(=O)[C@H]3CCCN3)C1)C(=O)N1CCC[C@H](N1)C(=O)OCC(C)(C)C2 [Example A378]", "7.00 to 8.00"),
    ("CCn1c(-c2cccnc2[C@H](C)OC)c2c3cc(ccc31)N1CCO[C@@](C)(CC(NC(=O)[C@H](C(C)C)N(C)C(=O)C3(F)CCN(C(=O)C#CC(C)(C)N(C)C)CC3)C(=O)N3CCC[C@H](N3)C(=O)OCC(C)(C)C2)C1 (some centres unmarked) [Example A550]", "6.00 to 7.00"),
]

Parameters: items (list). Returns: pIC50 for each item.
1. CCn1c(-c2cccnc2[C@H](C)OC)c2c3cc(ccc31)-c1cccc(c1)C[C@H](NC(=O)[C@@H](CN1CC[C@]3(CCN(C(=O)C#C[C@H]4COCCN4C)C3)C1=O)C(C)C)C(=O)N1CCCC(N1)C(=O)OCC(C)(C)C2 (some centres unmarked) [Example A592]
2. CCn1c(-c2cccnc2[C@H](C)OC)c2c3cc(ccc31)-c1csc(n1)C[C@H](NC(=O)[C@H](C(C)C)N(C)C(=O)NC)C(=O)N1CCC[C@H](N1)C(=O)OCC(C)(C)C2 [Example A137]
3. C=CS(=O)(=O)N1CC[C@H](C(=O)N(C)[C@H](C(=O)N[C@H]2Cc3nc(cs3)-c3ccc4c(c3)c(c(-c3cncnc3)n4CC)CC(C)(C)COC(=O)[C@@H]3CCCN(N3)C2=O)C(C)C)C1 [Example A170]
4. CCn1c(-c2cccnc2[C@H](C)OC)c2c3cc(ccc31)-c1cc(O)cc(c1)C[C@H](NC(=O)[C@H](C(C)C)N(C)C(=O)[C@@H]1CCN[C@@H]1c1ccccc1)C(=O)N1CCC[C@H](N1)C(=O)OCC(C)(C)C2 (atropisomer, axis not shown) [Example A605]
5. CCn1c(-c2cnccc2COC)c2c3cc(ccc31)-c1cc(O)cc(c1)C[C@H](NC(=O)[C@H](C(C)C)N(C)CC(F)(F)F)C(=O)N1CCC[C@H](N1)C(=O)OCC(C)(C)C2 [Example A77]

A:
1. < 5.00
2. 6.00 to 7.00
3. < 5.00
4. 7.00 to 8.00
5. < 5.00

# per-item lookup of pIC50; items listed below
1. C=CC(=O)N1CC(OC[C@H](C(=O)N[C@H]2Cc3cccc(c3)-c3ccc4c(c3)c(c(-c3cccnc3[C@H](C)OC)n4CC)CC(C)(C)COC(=O)[C@@H]3CCCN(N3)C2=O)C(C)C)C1 (racemic) [Example A483]
2. CCn1c(-c2cccnc2[C@H](C)OC)c2c3cc(ccc31)-c1cccc(c1)C[C@H](NC(=O)[C@H](C(C)C)N(C)C(=O)[C@H]1CCN(CCO)C1)C(=O)N1CCC[C@H](N1)C(=O)OCC(C)(C)C2 [Example A109]

A:
["5.00 to 6.00", "5.00 to 6.00"]
